Hello, the source for this data is paper PMC6499816, in case you need it.

Kindly state pKd for each of the entries shown.
Molecular target: GABARAP-L1 (recombinant, BLI) (human, UniProt Q9H0R8 1-117)
Sequence (Q9H0R8 whole entry, looked up): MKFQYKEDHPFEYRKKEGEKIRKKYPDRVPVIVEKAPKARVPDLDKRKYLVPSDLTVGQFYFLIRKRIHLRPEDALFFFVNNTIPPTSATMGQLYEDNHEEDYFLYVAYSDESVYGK
Experiment: BLI; biotinylated LIR peptide (50 μg/ml) immobilised on streptavidin biosensor, ATG8 in solution; Octet Red 96; 25 mM Tris pH 7.5, 150 mM NaCl, 0.5 mM TCEP, 0.1% Tween-20, 1 mg/ml BSA; 25 °C; Kd from response against concentration
Conditions: both partners purified
Ends that are not written are not given here.
For clarity, pKd is expressed as the negative log10 of concentration in mol/L.

In plain terms, GGSSGNTHDDFVMIDFKPAFSKDD (also: biotin, position not given here) [ATG13 LIR peptide (biotinylated, BLI)] has a documented pKd of 6.28

In plain terms, PDSIDAHTFDFETIPHPNIEQTIH (also: biotin, position not given here) [FIP200 LIR peptide (biotinylated, BLI)] has a documented pKd of 5.15
